- Test system: 171881-019-R-J1-PDC tumor spheroid viability;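 note: spheroids exposed to compound for 7 days before viability read; 100% = DMSO vehicle-treated spheroids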
- experiment: Anticancer human tumor 171881-019-R-J1-PDC patient-derived invasive breast carcinoma cell line growth inhibition [PI3K]
- reported.conditions: second compound 0.01 µM; first compound 1 µM; stronger effect = lower value; spheroids with HUVEC and MSC
quantity.name: viability, T/C

Log: 171881-019-R-J1-PDC tumor spheroid viability, compound Cn1nccc1Nc1nccc(-c2ccn(C(CO)c3ccc(Cl)c(F)c3)c(=O)c2)n1 (stereo unspecified) + COc1c(OCCCN2CCOCC2)ccc2c3n(c(=NC(=O)c4cnc(N)nc4)nc12)CCN3 , viability, T/C = 12.2%

Tested on 171881-019-R-J1-PDC tumor spheroid viability, the item C[C@@H](NC(=O)c1ncnc(N)c1Cl)c1ncc(C(=O)Nc2cc(C(F)(F)F)c(Cl)cn2)s1 + CC(Nc1ccc2c(c1)OCCn1cc(N3C(=O)OCC3C(F)F)nc1-2)C(N)=O showed viability, T/C equal to 70.3%

Response field viability, T/C (171881-019-R-J1-PDC tumor spheroid viability) for item CCCS(=O)(=O)Nc1ccc(F)c(C(=O)c2c[nH]c3ncc(-c4ccc(Cl)cc4)cc23)c1F + COc1c(OCCCN2CCOCC2)ccc2c3n(c(=NC(=O)c4cnc(N)nc4)nc12)CCN3 : 83.6%

Given the compound CCN1CCN(Cc2ccc(Nc3ncc(F)c(-c4cc(F)c5nc(C)n(C(C)C)c5c4)n3)nc2)CC1 + COc1c(OCCCN2CCOCC2)ccc2c3n(c(=NC(=O)c4cnc(N)nc4)nc12)CCN3 and test system 171881-019-R-J1-PDC tumor spheroid viability, the measured viability, T/C is 83.2%

Response field viability, T/C (171881-019-R-J1-PDC tumor spheroid viability) for item C#Cc1c(F)ccc2cc(O)cc(-c3ncc4c(N5CC6CCC(C5)N6)nc(OCC56CCCN5CC(F)C6)nc4c3F)c12 (stereo unspecified) + CC(Nc1ccc2c(c1)OCCn1cc(N3C(=O)OCC3C(F)F)nc1-2)C(N)=O : 27.5%

// compound CCN1CCN(Cc2ccc(Nc3ncc(F)c(-c4cc(F)c5nc(C)n(C(C)C)c5c4)n3)nc2)CC1 + CC(Nc1ccc2c(c1)OCCn1cc(N3C(=O)OCC3C(F)F)nc1-2)C(N)=O , assay 171881-019-R-J1-PDC tumor spheroid viability, viability, T/C value: 109%

Bench note, 171881-019-R-J1-PDC tumor spheroid viability: entry CCCS(=O)(=O)Nc1ccc(F)c(C(=O)c2c[nH]c3ncc(-c4ccc(Cl)cc4)cc23)c1F + CC(Nc1ccc2c(c1)OCCn1cc(N3C(=O)OCC3C(F)F)nc1-2)C(N)=O , its viability, T/C = 102%

With 171881-019-R-J1-PDC tumor spheroid viability as the test system, CC1(C)CCC(Nc2ncc(C(F)(F)F)c(-c3c[nH]c4c(P(C)(C)=O)c(C#N)ccc34)n2)CN1 (stereo unspecified) + CC(Nc1ccc2c(c1)OCCn1cc(N3C(=O)OCC3C(F)F)nc1-2)C(N)=O showed viability, T/C of 73.6%

Entry CC1(C)CCC(Nc2ncc(C(F)(F)F)c(-c3c[nH]c4c(P(C)(C)=O)c(C#N)ccc34)n2)CN1 (stereo unspecified) + COc1c(OCCCN2CCOCC2)ccc2c3n(c(=NC(=O)c4cnc(N)nc4)nc12)CCN3 , 171881-019-R-J1-PDC tumor spheroid viability data, viability, T/C value: 55.3%

Entry CC(Cn1ccc(-c2ccc(C#N)c(Cl)c2)n1)NC(=O)c1cc(C(C)O)[nH]n1 (stereo unspecified) + COc1c(OCCCN2CCOCC2)ccc2c3n(c(=NC(=O)c4cnc(N)nc4)nc12)CCN3 ; assay system 171881-019-R-J1-PDC tumor spheroid viability; viability, T/C recorded at 51.1%

The measured viability, T/C that C[C@@H](NC(=O)c1ncnc(N)c1Cl)c1ncc(C(=O)Nc2cc(C(F)(F)F)c(Cl)cn2)s1 + COc1c(OCCCN2CCOCC2)ccc2c3n(c(=NC(=O)c4cnc(N)nc4)nc12)CCN3 showed for 171881-019-R-J1-PDC tumor spheroid viability is 43.4%
